Target: T1, human CD98 on the cell surface (human)
T1 chain: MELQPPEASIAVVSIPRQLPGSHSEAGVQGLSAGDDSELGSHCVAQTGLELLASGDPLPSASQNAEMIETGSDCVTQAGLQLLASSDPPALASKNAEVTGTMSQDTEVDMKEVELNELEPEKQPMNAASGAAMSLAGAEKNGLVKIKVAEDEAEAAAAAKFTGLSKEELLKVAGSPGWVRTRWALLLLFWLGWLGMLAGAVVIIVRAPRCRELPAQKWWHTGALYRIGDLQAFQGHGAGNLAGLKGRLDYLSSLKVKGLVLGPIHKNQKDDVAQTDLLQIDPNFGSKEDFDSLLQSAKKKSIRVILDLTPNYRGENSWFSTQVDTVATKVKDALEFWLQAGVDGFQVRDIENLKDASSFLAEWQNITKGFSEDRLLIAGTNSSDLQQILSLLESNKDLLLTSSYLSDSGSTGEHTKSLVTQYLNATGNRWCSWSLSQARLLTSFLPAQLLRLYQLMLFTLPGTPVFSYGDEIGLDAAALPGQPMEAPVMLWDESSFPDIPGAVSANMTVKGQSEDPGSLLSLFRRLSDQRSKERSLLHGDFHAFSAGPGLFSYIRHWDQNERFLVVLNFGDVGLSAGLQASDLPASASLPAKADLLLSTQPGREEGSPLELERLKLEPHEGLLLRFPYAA
Assay: cell-based or functional assay
Attribute: ADC potency, IC50 (nM), H2170 (NSCLC) growth inhibition
Reported Metric: ADC potency, IC50 (nM), H2170 (NSCLC) growth inhibition

>  <Binder>
ChAb10-CZ (other, synthon CZ on reduced interchain Cys of the constant regions (sites not numbered)) VH: EVQLVESGGGLVQPGRSLKLSCAASGFTFSDYAMAWVRQAPKKSLEWVATIIYDGRGTYCRDSVKGRFTISRDNAKSTLYLQMDSLRSEDTATYYCARQGDGTYHYWGYFDYWGQGVMVTVSS VL: DIVMTQSPSSLAVSAGETVTINCKSSQSLLSSGNQKNYLAWYQQKPGQSPKLLIYWASTRQSGVPDRFIGSGSGTDFTLTISSVQAEDLAIYYCQQYYDTPYTFGAGTKVDLK

>  <Result>
0.09 nM

$$$$
>  <Binder>
ChAb13-CZ (other, synthon CZ on reduced interchain Cys of the constant regions (sites not numbered)) VH: QVQLKESGPGLVQPSQTLSLTCTVSGFSLSSYGVIWVRQPPGKGLEWMGIIWANGNTNYNSALKSRLSISRDTSKSQVYLKMNSLQTEDTATYYCARHYYDGTHYYGYFDYWGQGVMVTVSS VL: DTVMTQTPSSQAVSAGEKVTMSCKSSQSLLYSENKKKYLAWYQQKPGQSPKLLIYWASTRESGVPDRFIGSGSGTDFTLTISSVQAEDLAVYYCQQYYNFPYTFGAGTKLELK

>  <Result>
0.321 nM

$$$$
>  <Binder>
ChAb5-CZ (other, synthon CZ on reduced interchain Cys of the constant regions (sites not numbered)) VH: EVKLVESGGGLVQPGGSLRLSCATSGFTFTDYYMTWVRQPPGKALEWLGFIRNKANGYTTEYSASVKGRFTISRDNSLSILYLQMNTLRAEDSATYYCARASYVNSEGWFAYWGQGTLVTVSA VL: DIVMSQSPSSLAVSVGEKVTMSCKSSQSLLYSSNQKNYLAWYQQKLGQSPKLLIYWASTRESGVPDRFTGSGSGTDFTLTISSVKAEDLAVYYCQHYYSYPRTFGGGTKLEIK

>  <Result>
0.161 nM

$$$$
